These records show pKi for Central CCK Receptors (Mus musculus, UniProt P56481).
Entry type: numeric. Quantity: pKi, the -log10 of concentration in molar units.

CC1(C(=O)N[C@H](CO)Cc2ccccc2)Cc2c([nH]c3ccccc23)CN1C(=O)OC1C2CC3CC(C2)CC1C3 (mixture of isomers) ... 6.30
CC1(C(=O)N[C@H](CNC(=O)CCC(=O)O)Cc2ccccc2)Cc2c([nH]c3ccccc23)CN1C(=O)OC1C2CC3CC(C2)CC1C3 (mixture of isomers) ... 6.52
CC1(C(=O)NCCc2ccccc2)Cc2c([nH]c3ccccc23)CN1C(=O)OC1C2CC3CC(C2)CC1C3 (racemic) ... 6.82
CC1(C(=O)NCC(OC(=O)CCC(=O)O)c2ccccc2)Cc2c([nH]c3ccccc23)CN1C(=O)OC1C2CC3CC(C2)CC1C3 (stereo not shown) ... 6.00
O=C(NCCc1ccccc1)C1Cc2c([nH]c3ccccc23)CN1C(=O)OC1C2CC3CC(C2)CC1C3 (racemic) ... 6.00
CC1(C(=O)NCC(NC(=O)/C=C\C(=O)O)c2ccccc2)Cc2c([nH]c3ccccc23)CN1C(=O)OC1C2CC3CC(C2)CC1C3 (mixture of isomers) ... 6.15
CC1(C(=O)NCC(N)c2ccccc2)Cc2c([nH]c3ccccc23)CN1C(=O)OC1C2CC3CC(C2)CC1C3 (mixture of isomers) ... 5.52
CC1(C(=O)NCC(O)c2ccccc2)Cc2c([nH]c3ccccc23)CN1C(=O)OC1C2CC3CC(C2)CC1C3 (stereo not shown) ... 6.15

# pKi lookup, item CC1(C(=O)NCC(NC(=O)CC(=O)O)c2ccccc2)Cc2c([nH]c3ccccc23)CN1C(=O)OC1C2CC3CC(C2)CC1C3 (mixture of isomers) 6.00

Entry C[C@@]1(C(=O)N[C@H](CO)Cc2ccccc2)Cc2c([nH]c3ccccc23)CN1C(=O)OC1C2CC3CC(C2)CC1C3 (stereo partly shown) please 5.82

* * *

pKi listing for selected compounds.
Target sequence: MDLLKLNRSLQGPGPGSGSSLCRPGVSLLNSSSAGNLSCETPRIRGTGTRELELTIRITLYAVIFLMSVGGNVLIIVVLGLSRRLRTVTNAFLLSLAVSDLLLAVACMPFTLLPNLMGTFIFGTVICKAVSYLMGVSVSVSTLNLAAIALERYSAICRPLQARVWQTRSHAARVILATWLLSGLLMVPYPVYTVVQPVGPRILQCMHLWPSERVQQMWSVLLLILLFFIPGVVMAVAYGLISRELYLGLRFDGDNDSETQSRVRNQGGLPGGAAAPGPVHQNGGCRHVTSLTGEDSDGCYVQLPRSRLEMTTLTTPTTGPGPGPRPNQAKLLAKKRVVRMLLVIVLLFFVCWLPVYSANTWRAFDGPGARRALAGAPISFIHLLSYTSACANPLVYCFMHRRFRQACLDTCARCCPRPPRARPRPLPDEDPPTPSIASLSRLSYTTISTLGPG
Entry type: numeric. Quantity: pKi, the -log10 of concentration in molar units.

# pKi lookup, item C[C@]1(C(=O)N[C@H](CO)Cc2ccccc2)Cc2c([nH]c3ccccc23)CN1C(=O)OC1C2CC3CC(C2)CC1C3 (some centres unmarked) 6.14

Entry CC1(C(=O)NCC(NC(=O)/C=C\C(=O)O)c2ccccc2)Cc2c([nH]c3ccccc23)CN1C(=O)OC1C2CC3CC(C2)CC1C3 (mixture of isomers) please 6.15

Entry CC1(C(=O)NCC(NC(=O)CCC(=O)OCc2ccccc2)c2ccccc2)Cc2c([nH]c3ccccc23)CN1C(=O)OC1C2CC3CC(C2)CC1C3 (mixture of isomers) please 5.52

Entry CC1(C(=O)N[C@@H](CO)[C@@H](O)c2ccccc2)Cc2c([nH]c3ccccc23)CN1C(=O)OC1C2CC3CC(C2)CC1C3 (some centres unmarked) please 6.07

Entry CC1(C(=O)NCC(NC(=O)CCC(=O)O)c2ccccc2)Cc2c([nH]c3ccccc23)CN1C(=O)OC1C2CC3CC(C2)CC1C3 (centres unmarked) please 6.30

Entry C[C@@]1(C(=O)N[C@H](CO)Cc2ccccc2)Cc2c([nH]c3ccccc23)CN1C(=O)OC1C2CC3CC(C2)CC1C3 (some centres unmarked) please 5.82

Entry CC1(C(=O)NCC(O)c2ccccc2)Cc2c([nH]c3ccccc23)CN1C(=O)OC1C2CC3CC(C2)CC1C3 (centres unmarked) please 6.15

Entry CC1(C(=O)NCC(N)c2ccccc2)Cc2c([nH]c3ccccc23)CN1C(=O)OC1C2CC3CC(C2)CC1C3 (mixture of isomers) please 5.52

Entry source: patent US5244905A
